test system: MS2 coat protein; assay: apparent KD of MS2 coat protein; designed switch direction (-1 OFF switch, 1 ON switch): -1; higher = weaker reporter binding; conditions: input ligand: none
Use apparent KD of MS2 coat protein to assign classes; range list: low band = under 20 nM, middle band = from 20 nM up to 200 nM, high band = 200 nM and over

q: Which of the defined bands does the recorded apparent KD of MS2 coat protein of CCGAGCAUAUGAGGAUCAGACAUGAGGAUCACCCAUGUGCUCCGUCGAAGGAAUAAUCAUAAUGCUGGCUCGUCGUG [Eternabot (L2) Solution 6] (Eterna round: R97, puzzle: Sensor, turn-off variant 1) sit within?
a: high band

q: Which of the defined bands does the recorded apparent KD of MS2 coat protein of UGUUGGUACGUAGGAUAUCCACCAACAGGUGGAAGGAUAUGUACGCAGAAGGUUCGCCAACAGGCGGAGAAGGACGUGGUAACU [pwkr exNG2 2xF7 2xFMN.29] (Eterna round: R96, puzzle: Exclusion NG 2) sit within?
a: middle band

q: Which of the defined bands does the recorded apparent KD of MS2 coat protein of ACAUGAGGAUCACCCAUGUGACCAUGAUGGCUGAUGUAGAGCUAGGAUAUGAGUGAAUAUCUAUCUCAGAAGGAGCUUGACUGG [Deportation 48 - Jieux - Exclusion NG 3] (Eterna round: R96, puzzle: Exclusion NG 3) sit within?
a: middle band

q: Which of the defined bands does the recorded apparent KD of MS2 coat protein of UGAUCUAGCGGAGGAUAUACAUGAGGAUCACCCAUGUAGGAUCCAUGACCGUAGUCGUGGAUCGUGUAGAAGGCCGCUAGAUCU [JL ENG2 3.70] (Eterna round: R96, puzzle: Exclusion NG 2) sit within?
a: low band

q: Which of the defined bands does the recorded apparent KD of MS2 coat protein of CUUUUGUGAGGAUAUUAGUAGUAAAUAAAUAAAAUUACUACUGAGAAGGCACAUGAGGAUCACCCAUGUUCCUC [Salish 062 v16] (Eterna round: R97, puzzle: Exclusion 4) sit within?
a: middle band

q: Which of the defined bands does the recorded apparent KD of MS2 coat protein of AUAAGGUCAGGAUAUGCUUGGCUGAUUCUGGUGUCCAAAUGACAUGAGGAUCACCCAUGUAGAAGGGACAUCAG [Usgeledi] (Eterna round: R97, puzzle: Exclusion 2) sit within?
a: low band

q: Which of the defined bands does the recorded apparent KD of MS2 coat protein of CUUUUGUGAGGAUAUUAAUAGUAAGUAAAUAAAAUUAUUACUAAGAAGGCACAUGAGGAUCACCCAUGUUUCUC [EX4 #83] (Eterna round: R97, puzzle: Exclusion 4) sit within?
a: middle band

q: Which of the defined bands does the recorded apparent KD of MS2 coat protein of AGCAAGUUAGGAUAUCUUAAAGUUAGGUGAUGUCCUGUUUGAGAGAAGGAACAUGAGGAUCACCCAUGUGGUCA [Eternabot (L2) Solution 56] (Eterna round: R97, puzzle: Exclusion 4) sit within?
a: middle band

q: Which of the defined bands does the recorded apparent KD of MS2 coat protein of AAGACACAUGAGGAUCACCCAUGUGAGGAUAUUCGAUGCUGAGCGUAAGCUUAGUAUCGGAGAAGGCACAUAGG [Salishxclusion 8 - Jieux - Exclusion 1] (Eterna round: R97, puzzle: Exclusion 1) sit within?
a: high band

Cited source: the supplement of paper PMC9170038
